protocol-summary: in vitro
condition-details: human
endpoint-name: selectivity ratio

// selectivity ratio value for Cc1ccc2sc(N(CCCN(C)C)C(=O)c3nc4ccccc4s3)nc2c1C : < 10

---

protocol-summary: in vitro
condition-details: African green monkey
endpoint-name: CC50

Known CC50 results, listed for orientation:
- CCN1CCc2nc3sc(C(=O)c4ccccc4)c(C)c3cc2C1 [GAP-1022776]: 25.2 µM
- CC(C)(C)c1ccc(C(=O)On2c(-c3ccccc3F)nc3ccccc3c2=O)cc1 [GAP-1000864]: > 20 µM

// field: CC50; key: CCNc1cc(C)nc(N2CCN(C(=O)c3cccc4ccccc34)CC2)n1 [GAP-1066658] ; value = 88.5 µM

// recorded CC50 for Cc1ccc2sc(N(CCCN(C)C)C(=O)c3nc4ccccc4s3)nc2c1C [GAP-1041908] : 34.9 µM

Record Cc1ccc(NC(=O)c2oc3ccccc3c2NC(=O)c2nc(S(C)(=O)=O)ncc2Cl)cc1 [GAP-1027276] , field CC50: > 20 µM

What the record says about O=C(CN1C(=O)CNC1=O)NCc1n[nH]c2c1CCCCC2 [GAP-1173149] : CC50 is > 100 µM

Per the record, O=C(CSc1c2c(nc3cc(Cl)ccc13)CCCC2)Nc1ccc2c(c1)OCCO2 [GAP-1022901] has CC50 of > 20 µM

The reported CC50 of the compound CCS(=O)(=O)c1ncc(Cl)c(C(=O)Nc2nnc(C(C)C)s2)n1 [GAP-1027282] was > 20 µM

Quick note, CC50 for Cn1nc(CN(C(=O)c2ccc(F)cc2)c2ccccc2)c2c1CCN(S(=O)(=O)Cc1ccccc1F)C2 [GAP-1081237] landed at > 100 µM

---

Test system: SARS-CoV-2-nLuc
protocol-summary: microbe, parasite or virus in culture
Type: cell-based
condition-details: Severe acute respiratory syndrome coronavirus 2; VeroE6-TMPRSS2 cells; read-out: Antiviral potency (EC50 [µM]) SARS-CoV-2
endpoint-name: EC50

Some solved cases for reference:
* CCN1CCc2nc3sc(C(=O)c4ccccc4)c(C)c3cc2C1 [GAP-1022776] | > 20 µM
* Cc1ccc2sc(N(CCCN(C)C)C(=O)c3nc4ccccc4s3)nc2c1C [GAP-1041908] | 28 µM
* O=C(CSc1c2c(nc3cc(Cl)ccc13)CCCC2)Nc1ccc2c(c1)OCCO2 [GAP-1022901] | > 20 µM
* Cc1ccc(NC(=O)c2oc3ccccc3c2NC(=O)c2nc(S(C)(=O)=O)ncc2Cl)cc1 [GAP-1027276] | > 20 µM

Now, please, on to the next compound.
EC50 reading for CCS(=O)(=O)c1ncc(Cl)c(C(=O)Nc2nnc(C(C)C)s2)n1 [GAP-1027282] : > 20 µM

---

System: CHIKV-nLuc (181/25 strain)
protocol-summary: microbe, parasite or virus in culture
Type: cell-based, Chikungunya virus
condition-details: Chikungunya virus, 384-well format, read 20 h after infection, read-out: Normalized percent inhibition in primary screen
endpoint-name: inhibition at 5 µM
Field note: include the unit after the figure.

• CCNc1nc(C)cc(N2CCN(C(=O)c3ccccc3Br)CC2)n1 [GAP-1354666] = 82.5%
• CC(C)(C)c1ccc(C(=O)On2c(-c3ccccc3F)nc3ccccc3c2=O)cc1 [GAP-1000864] = 91%

response.value for CCNc1nc(C)cc(N2CCN(C(=O)c3ccc(F)cc3Cl)CC2)n1 [GAP-1358964] (field: inhibition at 5 µM) = 91.6%

The compound CCN1CCc2nc3sc(C(=O)c4ccccc4)c(C)c3cc2C1 [GAP-1022776] showed inhibition at 5 µM equal to 85.7%

Note to self: inhibition at 5 µM recorded for Cn1nc(CN(C(=O)c2ccc(F)cc2)c2ccccc2)c2c1CCN(S(=O)(=O)Cc1ccccc1F)C2 [GAP-1081237] was 80.2%

// sample Cc1ccc(NC(=O)c2oc3ccccc3c2NC(=O)c2nc(S(C)(=O)=O)ncc2Cl)cc1 [GAP-1027276] , its inhibition at 5 µM was 98.2%

Sample CCNc1nc(C)cc(N2CCN(C(=O)c3ccccc3Cl)CC2)n1 [GAP-1358555] ; inhibition at 5 µM observed: 85.8%

response.value for Cc1ccc2sc(N(CCCN(C)C)C(=O)c3nc4ccccc4s3)nc2c1C [GAP-1041908] (field: inhibition at 5 µM) = 94.7%
